assay_details: In vivo localization capacities at 24 hr post injection in a mouse C6 intracerebral glioma model and the tumor; normal brain ratio was calculated
Type: functional
What Ratio was measured for each of the following?

Q: Ratio for CCOCCOC(C)C1=C(C)c2cc3[nH]c(cc4[nH]c(cc5nc(cc1n2)C(C)=C5C(C)OCCOCC)c(C)c4CCC(=O)O)c(CCC(=O)O)c3C (stereo not given) ?
A: 25.1

Q: Ratio for CCOC(C)C1=C(C)c2cc3[nH]c(cc4[nH]c(cc5nc(cc1n2)C(C)=C5C(C)OCC)c(C)c4CCC(=O)O)c(CCC(=O)O)c3C (stereo not given) ?
A: 8.7

Q: Ratio for CCOC(C)C1=C(C)c2cc3[nH]c(cc4[nH]c(cc5nc(cc1n2)C(C)=C5C(C)OCC)c(C)c4CCC(=O)NCCN(C)C)c(CCC(=O)NCCN(C)C)c3C (stereo not given) ?
A: 6.4

Q: Ratio for CC1=C(C(C)SCC(=O)O)c2cc3nc(cc4[nH]c(cc5[nH]c(cc1n2)c(C)c5CCC(=O)O)c(CCC(=O)O)c4C)C(C(C)SCC(=O)O)=C3C (stereo not given) ?
A: 28.2

Q: Ratio for CCOCCOC(C)C1=C(C)c2cc3[nH]c(cc4[nH]c(cc5nc(cc1n2)C(C)=C5C(C)OCCOCC)c(C)c4CCC(=O)NCCN(C)C)c(CCC(=O)NCCN(C)C)c3C (stereo not given) ?
A: 8
